# Tested on: P12-Ichikawa
# Protocol text: cell viability relative to DMSO control; higher = less cytotoxic
# Conditions used: HPLM + 10% dialyzed FBS; 48 h; 15.4 µM
Measure: cell viability (%)
Provide the reading as a plain figure in %.

Lookup: Recorded cell viability of COC1CCC(CC1)N(C(=O)C2CCC(C)CC2)C3=C(SC(=C3)\C4=C\CCCC4)C(O)=O (stereo not drawn) , please.
Found: 83.5

Lookup: Recorded cell viability of Cl.Cl.Cl.O[C@@H](COc1cccc2ncccc12)CN1CCN([C@@H]2c3ccccc3[C@@H]3[C@H](c4ccccc42)C3(F)F)CC1 , please.
Found: 84.5

Lookup: Recorded cell viability of Cc1cn2c(-c3cn[nH]c3)cnc2c(Nc2ccc(C(=O)N3CCNCC3)cc2F)n1 , please.
Found: 73.4

Lookup: Recorded cell viability of CC\1=C/C=C\C=[N]1[Pt](N)(Cl)Cl , please.
Found: 107

Lookup: Recorded cell viability of O=C(NCC[S+](=O)([O-])c1ccc(C(F)(F)F)cn1)c1ccc(Cl)cc1 , please.
Found: 112

Lookup: Recorded cell viability of C=C(C)[C@@H]1CC[C@]2(C(=O)O)CC[C@]3(C)[C@H](CC[C@@H]4[C@@]5(C)CC[C@H](O)C(C)(C)[C@@H]5CC[C@]43C)[C@@H]12 , please.
Found: 99.1

Lookup: Recorded cell viability of C[C@]\12CC[C@H](O)CC1=C/CC3C2CC[C@@]\4(C)C3C\C=C4[N]5C=NC6=C5C=CC=C6 (stereo partly drawn) , please.
Found: 106

Lookup: Recorded cell viability of CC(NC1=CC=CC=C1)C\2=C\C(=C/N3C(=O)\C=C(/N=C23)N4CCOCC4)C (stereo not drawn) , please.
Found: 106
